For each of the sequences below, state its apparent KD of MS2 coat protein.
# Tested on: MS2 coat protein
# METHOD_DESCRIPTION: apparent KD of MS2 coat protein; higher = weaker reporter binding
# MEASUREMENT_PARAMETERS: Eterna round: R107; input ligand: theophylline 2 mM

Dear colleague, I am looking for the recorded apparent KD of MS2 coat protein of the following sequence: AAUUUAAACGGAAGGAGCGUCACUUAAUAUCAACAUGAGGAUCACCCAUGUAAGGGUUGUAGACAGGUAGGUCGCCGUCAUUUGA [JR_AAArginiB_Sub023]
41.9 nM

Dear colleague, I am looking for the recorded apparent KD of MS2 coat protein of the following sequence: CUCCUGUGAGCGGCCGCCACUGGAGGCCUCGCGCGACAUGAGGAUCACCCAUGUUGGCCCGGCCUCAGGACCGGGUUCGCGCGAG [Same State - Tryptophan B Attempt #4 (HarryS)]
10.7 nM

Dear colleague, I am looking for the recorded apparent KD of MS2 coat protein of the following sequence: ACACAAUACAUGAGGAUCACCCAUGUAAAACGAGGACCGGUACGGCCGCCACUCGAAUACAGGAAACCUCGGAAUAUUAAGUGAA [JR_ExcTryptA_Sub001]
95.8 nM

Dear colleague, I am looking for the recorded apparent KD of MS2 coat protein of the following sequence: ACAUGAGGAUCACCCAUGUAUGACUAUCCUCGAGGACCGGUACGGCCGCCACUCGAACGAGUGGCUCGCGAGUGCGCACUUGCGA [5' end]
12.7 nM

Dear colleague, I am looking for the recorded apparent KD of MS2 coat protein of the following sequence: GUAUUAAGAAAACUUGAUACAGUGGGUGAACGAGGACCGGUACGGCCGCCACUCGGACAUGAGGAUCACCCAUGUCCAUGUGAAA [AstrosExyTryA#11]
17.2 nM

Dear colleague, I am looking for the recorded apparent KD of MS2 coat protein of the following sequence: GAUAUGAUAAGAAGGAGCGUCGAAAAUGGGUAAACAUGAGGAUCACCCAUGUAAAGGGAACGACAGGUAGGUCGCUUAUUAUAUC [AstromonsSSArgB#19]
251 nM
